System: HCT-116 colon
Test: NCI-60 one-dose screen, 48 h
Experimental setup: 10 µM unless noted
This is part of a sample that, as a whole, favours compounds with a hit. Of some 83,000 tested, about 20% had one in any assay. The source made the active and inactive calls. Rule for the calls: active = growth percent below 10; inactive = the rest.
Assign a class; possible classes are active, inactive

Before answering, review these 3 worked examples.
- Compound: "CO[C@@H]1[C@H](OC(=O)NC(=O)CCl)CC[C@]2(CO2)[C@H]1[C@@]1(C)O[C@@H]1CC=C(C)C"
  Group label: "inactive"
- Compound: "CNc1ccc(C(=O)CC(O)CCC(C)C2OC(=O)CC(O)CC(=O)CC(O)CC(O)CC(O)CC(O)CC3(O)CC(O)C(C(=O)OC)C(CC(O[C@@H]4O[C@H](C)[C@@H](O)[C@H](N)[C@@H]4O)/C=C/C=C/C=C/C=C/C=C/C=C/C=C/C2C)O3)cc1 (some centres undefined)"
  Group label: "active"
- Compound: "CC(=O)Nc1ccc(C=C2C(=O)NC(=O)NC2=O)cc1"
  Group label: "inactive"

Attention now shifts to the item below.
Task item: So what was the verdict on [Cl][Hg][n]1cnc2c(Cl)c(Cl)c(Cl)cc21 in this test?
Reply: inactive
